System: U251 CNS
// classify into active, inactive

Consider the following illustrative entries.
Exam item: Please let me know the test result on file for CCc1nc2cc(/C=C/C(=O)NO)c(F)cc2c(=O)n1CCc1ccccc1 .
Marked response: inactive

Exam item: Please let me know the test result on file for COc1ccc(S(=O)(=O)N2CCCCC2)cc1NC(=O)c1[nH]c(C)c2c1CCCCC2=O .
Marked response: inactive

Exam item: Please let me know the test result on file for Cn1c(-c2c(N)n(Cc3ccc(Cl)cc3)c3nc(C#N)c(C#N)nc23)nc2ccccc21 .
Marked response: inactive

Exam item: Please let me know the test result on file for CC(C)NCCCNC1=C(Cl)C(=O)c2ccccc2C1=O .
Marked response: inactive

Exam item: Please let me know the test result on file for CCCCCn1ncc(-c2c(O)c(O)cc3c(O)c(-c4c(C)cc5c(-c6cnn(CCCCC)n6)c(O)c(O)cc5c4O)c(C)cc23)n1 .
Marked response: active

Exam item: Please let me know the test result on file for COc1ccc(-c2ccc(=O)oc2-c2cc(OC)c(OC)c(OC)c2)cc1O .
Marked response: active

Exam item: Please let me know the test result on file for COc1ccc(OC)c(-c2cn3nc(-c4c[nH]c5ccc(Br)cc45)sc3n2)c1 .
Marked response: inactive

Exam item: Please let me know the test result on file for CC(=O)c1ccc(NCn2nc(-c3ccccc3O)oc2=S)cc1 .
Marked response: inactive

---
Exam item: Please let me know the test result on file for CCC(=O)[O-].CCC(=O)[O-].N.N.N.N.[Co+3].[O-][Cl+3]([O-])([O-])[O-] .
Marked response: inactive

Exam item: Please let me know the test result on file for CCOc1ccccc1N=C(NC(=O)CC)SC .
Marked response: inactive

###

Tested on: SN12C renal
Assay: NCI tumour cell line growth inhibition, 48 h
Below, each entry is listed alongside its reported GI50.

Exam item: State the recorded GI50 for this entry: COc1ccc(OC)c(-c2cn3nc(-c4c[nH]c5ccc(Br)cc45)sc3n2)c1
Marked response: 2.74 µM

Exam item: State the recorded GI50 for this entry: C=C(C)[C@@H]1CC[C@]2(c3ncc(C)o3)CC[C@]3(C)[C@H](CC[C@@H]4[C@@](C)(CCC#N)[C@H](C(=C)C)CC[C@]43C)[C@@H]12
Marked response: 3.16 µM

Exam item: State the recorded GI50 for this entry: N#C/C(=C/c1cccs1)c1cccs1
Marked response: > 100 µM

Exam item: State the recorded GI50 for this entry: COc1cccc(NC(=O)c2ccc(C(F)(F)F)nc2Nc2ccc(Cl)cc2C)c1
Marked response: 12.4 µM

Exam item: State the recorded GI50 for this entry: COc1cc(C(C)c2cc3c(cc2OCCOCCOc2cc4c(cc2C(C)c2cc(OC)c(OC)c(OC)c2)OCO4)OCO3)cc(OC)c1OC (configuration not stated)
Marked response: > 100 µM

Exam item: State the recorded GI50 for this entry: Cc1cc(C)c(S(=O)(=O)Oc2ccccc2[N+](=O)[O-])c(C)c1
Marked response: 14.7 µM

###

Test system: A549 NSCLC
Test: NCI tumour cell line growth inhibition, 48 h
Below, each entry is listed alongside its reported TGI.

Answered examples (3):
Exam item: Item: CC(C)(C)c1cc2c(OP(c3ccccc3)c3ccccc3)c(c1)Cc1cc(C(C)(C)C)cc(c1OP(c1ccccc1)c1ccccc1)Cc1cc(C(C)(C)C)cc(c1OP(c1ccccc1)c1ccccc1)Cc1cc(C(C)(C)C)cc(c1OP(c1ccccc1)c1ccccc1)C2 Test system: A549 NSCLC Read-out: TGI Value: ?
Marked response: > 50 µM

Exam item: Item: CC(C)C(OC(=O)c1cc(NC(=S)c2ccccc2)ccc1Cl)C(C)C Test system: A549 NSCLC Read-out: TGI Value: ?
Marked response: > 94.7 µM

Exam item: Item: CC(C)c1cccc2sc(NC(=O)C(=O)CC(=O)c3ccc(F)cc3)nc12 Test system: A549 NSCLC Read-out: TGI Value: ?
Marked response: > 100 µM

Now for the compound whose TGI we want.
Exam item: Item: Cc1ccccc1N=Nc1ccc(N=Nc2c(O)ccc3cc(S(=O)(=O)O)cc(S(=O)(=O)O)c23)c(C)c1 Test system: A549 NSCLC Read-out: TGI Value: ?
Marked response: > 100 µM
